Source listed as patent US20060067886A1.

Avg % ID, Muscle reference
ASSAY NAME: Biodistribution of radiometal-DOTA-BBN conjugates in CF1 normal mice
PROTOCOL CONDITIONS: 1 hour post-injection
Field format: number, assumed % ID, no unit text.

Answered examples (2):
COMPOUND	ASSAY ENDPOINT	UNIT SPEC	TEST RESULT
CSCC[C@H](NC(=O)[C@H](CC(C)C)NC(=O)[C@H](Cc1cnc[nH]1)NC(=O)CNC(=O)[C@@H](NC(=O)[C@H](C)NC(=O)[C@H](Cc1c[nH]c2ccccc12)NC(=O)[C@H](CCC(N)=O)NC(=O)CN1CCN(CC(=O)O)CCN(CC(=O)O)CCN(CC(=O)O)CC1)C(C)C)C(N)=O [177Lu-DOTA-0-BBN[7-14]NH2] [metal not drawn]	Avg % ID, Muscle	% ID	0.02
CSCC[C@H](NC(=O)[C@H](CC(C)C)NC(=O)[C@H](Cc1cnc[nH]1)NC(=O)CNC(=O)[C@@H](NC(=O)[C@H](C)NC(=O)[C@H](Cc1c[nH]c2ccccc12)NC(=O)[C@H](CCC(N)=O)NC(=O)CN1CCN(CC(=O)O)CCN(CC(=O)O)CCN(CC(=O)O)CC1)C(C)C)C(N)=O [149Pm-DOTA-0-BBN[7-14]NH2]	Avg % ID, Muscle	% ID	0.00

Lab note: next compound to report on.
## Task # return recorded Avg % ID, Muscle for entry CSCC[C@H](NC(=O)[C@H](CC(C)C)NC(=O)[C@H](Cc1c[nH]cn1)NC(=O)CNC(=O)[C@@H](NC(=O)[C@H](C)NC(=O)[C@H](Cc1c[nH]c2ccccc12)NC(=O)[C@H](CCC(N)=O)NC(=O)CCCCNC(=O)CN1CCN(CC(=O)O)CCN(CC(=O)O)CCN(CC(=O)O)CC1)C(C)C)C(N)=O [111In-DOTA-5-Ava-BBN[7-14]NH2] [metal not drawn]
## Result 0.01

* * *

ASSAY NAME: Biodistribution of radiometal-DOTA-BBN conjugates in CF1 normal mice
PROTOCOL CONDITIONS: 1 hour post-injection
Avg % ID/gm, Spleen reference
Field format: number, assumed % ID/gm, no unit text.

Answered examples (4):
COMPOUND	Avg % ID/gm, Spleen, % ID/gm
CSCC[C@H](NC(=O)[C@H](CC(C)C)NC(=O)[C@H](Cc1cnc[nH]1)NC(=O)CNC(=O)[C@@H](NC(=O)[C@H](C)NC(=O)[C@H](Cc1c[nH]c2ccccc12)NC(=O)[C@H](CCC(N)=O)NC(=O)CN1CCN(CC(=O)O)CCN(CC(=O)O)CCN(CC(=O)O)CC1)C(C)C)C(N)=O [177Lu-DOTA-0-BBN[7-14]NH2] [metal not drawn]	0.04
CSCC[C@H](NC(=O)[C@H](CC(C)C)NC(=O)[C@H](Cc1cnc[nH]1)NC(=O)CNC(=O)[C@@H](NC(=O)[C@H](C)NC(=O)[C@H](Cc1c[nH]c2ccccc12)NC(=O)[C@H](CCC(N)=O)NC(=O)CN1CCN(CC(=O)O)CCN(CC(=O)O)CCN(CC(=O)O)CC1)C(C)C)C(N)=O [149Pm-DOTA-0-BBN[7-14]NH2]	0.00
CSCC[C@H](NC(=O)[C@H](CC(C)C)NC(=O)[C@H](Cc1cnc[nH]1)NC(=O)CNC(=O)[C@@H](NC(=O)[C@H](C)NC(=O)[C@H](Cc1c[nH]c2ccccc12)NC(=O)[C@H](CCC(N)=O)NC(=O)CCNC(=O)CN1CCN(CC(=O)O)CCN(CC(=O)O)CCN(CC(=O)O)CC1)C(C)C)C(N)=O [177Lu-DOTA-β-Ala-BBN[7-14]NH2] [metal not drawn]	0.31
CSCC[C@H](NC(=O)[C@H](CC(C)C)NC(=O)[C@H](Cc1c[nH]cn1)NC(=O)CNC(=O)[C@@H](NC(=O)[C@H](C)NC(=O)[C@H](Cc1c[nH]c2ccccc12)NC(=O)[C@H](CCC(N)=O)NC(=O)CCCCNC(=O)CN1CCN(CC(=O)O)CCN(CC(=O)O)CCN(CC(=O)O)CC1)C(C)C)C(N)=O [111In-DOTA-5-Ava-BBN[7-14]NH2] [metal not drawn]	0.87

## Task # return recorded Avg % ID/gm, Spleen for entry CSCC[C@H](NC(=O)[C@H](CC(C)C)NC(=O)[C@H](Cc1c[nH]cn1)NC(=O)CNC(=O)[C@@H](NC(=O)[C@H](C)NC(=O)[C@H](Cc1c[nH]c2ccccc12)NC(=O)[C@H](CCC(N)=O)NC(=O)CCCCCCCCCCNC(=O)CN1CCN(CC(=O)O)CCN(CC(=O)O)CCN(CC(=O)O)CC1)C(C)C)C(N)=O [177Lu-DOTA-11-Aun-BBN[7-14]NH2] [metal not drawn]
## Result 1.78
